melting point values by entry

A selection of reference data follows.
input smiles | melting point
OCCCc1ccc2ccccc2c1O | 85 to 86 °C
Nc1ccc(-c2ccncc2)nn1 | 199 to 201 °C

Problem: Param item = CCN(CC)C(=O)CCc1nc(-c2ccccc2)nc2ccccc12 ; retrieve measured melting point.
Solution: 103 °C

Problem: # repeat for Cc1[nH]c(=S)n(Nc2ccccc2)c1-c1ccccc1
Solution: 224 to 226 °C

Problem: # repeat for CCCCCCCCCCCCCCCCCCOc1cn(CCC)c(CO)cc1=O
Solution: 120 to 121 °C

Problem: # repeat for CC(=O)OCCOc1ccc2oc3cc(C#N)ccc3c(=O)c2c1
Solution: 194 to 196 °C
